The origin of these recorded values is PubChem BioAssay (NCI).

Test system: T-47D breast
Assay: NCI tumour cell line growth inhibition, 48 h
# Lookup of reported GI50 keyed by entry

                                   compound  result_type  obs_value
0  Cn1nccc1Nc1nccc(-c2ccn([C@H](CO)c3ccc(Cl)c(F)c3)c(=O)c2)n1         GI50    26.5 µM

Query: State measured GI50 of the compound CCN(CC)CCCNc1ccc(C)c2sc3ccccc3c(=O)c12 with T-47D breast.
Result: 0.492 µM

Query: Under T-47D breast, report GI50 for COc1cc2nc(-c3ccc(Cl)cc3)cc(OCCCN3CCOCC3)c2cc1OC
Result: 1.96 µM

Query: Determine reported GI50 for O=C1c2cccc(Oc3ccccc3)c2C(=O)c2cccc(Oc3ccccc3)c21 ; test system: T-47D breast.
Result: > 100 µM

Query: Please respond with reported GI50 (system T-47D breast) for O=C1/C(=C/c2ccc(Cl)c(Cl)c2)CN(C(=O)CCN2CCC(=NO)CC2)C/C1=C\c1ccc(Cl)c(Cl)c1 .
Result: 1.1 µM

Query: Determine reported GI50 for O=C(/C=C/C12c3ccccc3C(c3ccccc31)C1C(=O)NC(=O)C12)c1ccccn1 (stereo unspecified) ; test system: T-47D breast.
Result: 1.73 µM

---

System: MOLT-4 leukemia
Experiment: NCI tumour cell line growth inhibition, 48 h
# key: entry, value: TGI

Past entries and their recorded results:
>>> print(df.to_string())
                                   molecule  obs_value
0   O=c1c2ccccc2sc2c(CO)ccc(NCCN3CCCCC3)c12    5.36 µM
1   COc1ccc2sc3c(NCCCN)nc4ccccc4c3c(=O)c2c1    3.17 µM
2  COc1cc([C@@H]2c3cc4c(cc3[C@@H](NC(=O)c3ccc(C#N)cc3)C3COC(=O)[C@@H]32)OCO4)cc(OC)c1O (stereo partly drawn)    12.4 µM

Query: Give recorded TGI. COc1ccc(OC)c(NCC(=O)n2nc(/C=C\c3ccc(O)c(OC)c3)cc2/C=C\c2ccc(O)c(OC)c2)c1
Result: 9.21 µM

Query: Identify the reported TGI for the following entry. CN(C)C(=O)C(F)(F)C(c1ccc(F)cc1)C1C(=O)N(C)C(=O)N(C)C1=O (stereo not drawn)
Result: > 100 µM

Query: Look up TGI of CN(C)CCn1c(=O)c2ccc(NCCCN(C)CCCNc3ccc4c(=O)n(CCN(C)C)c(=O)n5c6ccc(O)cc6c(=O)c3c45)c3c(=O)c4cc(O)ccc4n(c1=O)c23 and report it.
Result: < 0.0289 µM

Query: Report TGI for CCN(C)c1nc(N(C)CC)c2nc(N(C)CC)nc(N(C)CC)c2n1
Result: > 100 µM

Query: Let me know recorded TGI for CC(C)Oc1cccc(N2C(n3ccnc3)=Nc3ccncc3S2(=O)=O)c1 , thanks.
Result: 14.8 µM

---

Let's look at some compounds and their measured TGI.
Tested on: SK-MEL-2 melanoma
Assay: NCI tumour cell line growth inhibition, 48 h

Take a look at these entries with their results.
>>> df
                                   compound      tested_target  result_type  obs_value
0  c1ccc(C2=NC3OC2c2ccccc23)cc1 (configuration not stated)  SK-MEL-2 melanoma          TGI    > 10 µM
1  O=C(COc1ccc(OCC(=O)N/N=C/c2ccc(-c3ccc(Cl)cc3Cl)o2)c(Cl)c1)N/N=C/c1ccc(-c2ccc(Cl)cc2Cl)o1  SK-MEL-2 melanoma          TGI   > 100 µM
2  COc1nc2c(c(O)c(C)c(=O)n2OC2OCC(OC(C)=O)C(OC(C)=O)C2OC(C)=O)c(=O)n1C (configuration not stated)  SK-MEL-2 melanoma          TGI   > 100 µM

Query: Identify measured TGI associated with CC1=N/C(=C\c2ccc(/C=C3/N=C(C)OC3=O)cc2)C(=O)O1
Result: > 100 µM

Query: Given the compound O=C1NC(=O)c2c1n(Cc1ccccc1)c(=O)n2Cc1ccccc1 , write its reported TGI.
Result: > 100 µM

Query: Respond only with TGI recorded for O=c1c2c3c(sc2[nH]c(=S)n1-c1ccccc1)CCCc1ccc([N+](=O)[O-])cc1-3
Result: > 100 µM

Query: Specify reported TGI for the compound shown: N#CNC(N)=NCc1ccccc1
Result: > 100 µM

Query: Respond only with TGI recorded for O=C(NC1C(=O)NNC1c1cccc([N+](=O)[O-])c1)c1ccccc1 (configuration not stated)
Result: > 100 µM

Query: State, in one line, measured TGI of Cc1c(N2CCOCC2)nc2ccc(Cl)cc2c1-c1ccccc1
Result: > 100 µM

Query: Report measured TGI; entry is O=C1Oc2ccccc2C(=O)/C1=C1/C=C(c2ccccc2)SS1
Result: > 100 µM

Query: Tell me TGI reported for C[C@@H]1CC[C@@]2(C)C(C(=O)O)=CCCC2[C@@]1(C)CC(=O)c1ccoc1 (some centres not stated)
Result: > 25 µM

Query: Find the measured TGI of Cc1ccc2c(c1C)C(=O)C1(Cc3cc4c(cc3C1=O)CCC4)C2 (configuration not stated) and report it.
Result: > 100 µM

---

System: SNB-19 CNS
Experiment: NCI tumour cell line growth inhibition, 48 h
Listing of entries alongside the reported GI50.

As a guide, the following entries are already answered.
In [3]: df
Out[3]:
                                   molecule  result_type  obs_value
0  Nc1nc2c(c3cnccc13)C(c1ccc(Cl)c(Cl)c1)Cc1cnccc1-2 (stereo unspecified)         GI50     650 nM
1  O=C(Nc1cccc(-n2cc(-c3ccncc3)c(-c3cc(O)cc(Cl)c3)n2)c1)c1ccc(N2CCOCC2)c(C(F)(F)F)c1         GI50    3330 nM
2  O=C(OCc1ccc2c(Br)cc(Br)c(O)c2n1)c1cc2ccccc2[nH]1         GI50    1800 nM
3  CCN=c1sc2c(n1NC(=O)c1cc3ccc1CCc1ccc(cc1)CC3)C(=O)c1ccccc1C2=O         GI50     605 nM
4  Cc1cccc(NC(=O)c2sc3nc4c(cc3c2N)C(=O)CCC4)c1         GI50     464 nM
5  CCn1cc(C(=O)O)c(=O)c2cc(F)c(N3CCN(S(=O)(=O)c4cccc5ccccc45)CC3)cc21         GI50    3470 nM
6  CCCCCOc1ccc(/C=N/Nc2cc(C)nc3ccc(Cl)cc23)cc1         GI50    1870 nM
7  COC1N(C2CC(O)C(CO)O2)C(=O)NC(=O)C1(F)Br (stereo unspecified)         GI50   26600 nM
8         CCNc1nc(O)c(/C=C2\C=Nc3ncccc32)s1         GI50    3600 nM
9  CNCc1cccc2c1OCCOCCOCCN(C)S(=O)(=O)c1ccc(cc1)-c1cnc(N)c(n1)C(=O)N2         GI50    2720 nM

Below: the item to evaluate.
Query: Identify GI50 associated with the molecule COc1cc2c(cc1Nc1nc(N3CCc4ccccc43)c3cc[nH]c3n1)N(C(=O)CN(C)C)CC2
Result: 4440 nM

---

Test system: SK-OV-3 ovarian
Test: NCI tumour cell line growth inhibition, 48 h
Quick list: TGI per entry.

>>> print(df.to_string())
                                   compound  obs_value
0  O=C(/C=C/c1ccc(Cl)cc1)Oc1ccc(C=C2CCC/C(=C\c3ccc(OC(=O)/C=C/c4ccc(Cl)cc4)cc3)C2=O)cc1   > 100 µM
1  COc1cc([C@@H]2c3cc4c(cc3[C@@H](NC(=O)c3ccc(C#N)cc3)C3COC(=O)[C@@H]32)OCO4)cc(OC)c1O (stereo partly specified)    2.87 µM
2              NC1=CC(=O)c2c(O)ccc(O)c2C1=O  > 94.5 µM
3  O=C1[C@@H]2C(c3c(Cl)cccc3Cl)=NO[C@@H]2C(=O)N1c1ccc(Cc2ccc(N3C(=O)[C@H]4C(c5c(Cl)cccc5Cl)=NO[C@H]4C3=O)cc2)cc1   > 100 µM
4  O=C(/C=C/C12c3ccccc3C(c3ccccc31)C1C(=O)NC(=O)C12)c1ccccn1 (stereo unspecified)    8.31 µM

Turning to the following compound.
Query: In one line, give reported TGI of the entry COc1ccc(N=Nc2c(-c3c(OC)cc4occc4c3OC)[nH]c(=O)c(C#N)c2C)cc1 .
Result: > 100 µM

---

Test system: A549 NSCLC
Experiment: NCI tumour cell line growth inhibition, 48 h; in the data active means GI50 below about 0.43 µM; inactive means the rest
Field 'call' accepts active, inactive

Some solved entries appear below for comparison.
compound	tested target	class label
CC(=O)O[C@H]1C(=O)[C@@]2(C)C([C@H](OC(=O)c3ccccc3)[C@]3(O)C[C@H](OC(=O)[C@H](O)[C@@H](NC(=O)c4ccccc4)c4ccccc4)C(C)=C1C3(C)C)[C@]1(OC(C)=O)CO[C@@H]1C[C@@H]2O (stereo not given in full)	A549 NSCLC	active
CC1(C)N=C(N)N=C(N)N1c1ccc(CCC(=O)Nc2ccc(S(=O)(=O)F)cc2)cc1	A549 NSCLC	inactive
N#CC(C(=O)C(=O)Nc1c(Cl)cccc1Cl)c1ccccc1 (stereo not given)	A549 NSCLC	inactive
Nc1nc2c(c3cnccc13)C(c1ccc(Cl)c(Cl)c1)Cc1cnccc1-2 (stereo not given)	A549 NSCLC	inactive

Query: Hello, I am checking results. What call was entered for O=C1NN(C2=NNC3(C(=O)N2)c2ccccc2-c2ccccc23)C(c2ccccc2)=N/C1=C/c1ccc(Cl)cc1 ?
Result: inactive
